System: Plasmodium berghei (chloroquine sensitive strain)
Experiment: In vivo anti-malarial activity, 4-day suppressive test in infected mice
Conditions: 200 mg/kg daily for 4 days, intragastric, Swiss albino mice
Procedure: Tests were performed in a 4-day suppressive standard test using the methods of David, Thurston and Peters (David, A. F., Philip, J. R., Simon, L. C., Reto B., and Solomon N. Antimalarial drug discovery: Efficacy models for compound screening. Nature Reviews. 2004; 3: 509-520). The plasmodium species, that is most widely employed in rodent malaria parasite-Plasmodium berghei (chloroquine sensitive strain), was used to infect Swiss albino mice for a fourday suppressive test. […]
Readout type: Day 6 % Suppression (%)
Report the figure in % without appending any unit label.

Report measured Day 6 % Suppression; entry is O=C(/C=C/c1ccc(O)cc1)OC[C@H]1O[C@@H](Oc2c(-c3ccc(O)cc3)oc3cc(O)cc(O)c3c2=O)[C@H](O)[C@@H](O)[C@@H]1O [Tiliroside]
18.9

Report measured Day 6 % Suppression; entry is O=C(/C=C\c1ccc(O)cc1)OCC1O[C@@H](Oc2c(-c3ccc(O)cc3)oc3cc(O)cc(O)c3c2=O)C(O)[C@H](OC(=O)/C=C/c2ccc(O)cc2)[C@@H]1O (some centres unmarked) [Stenopalustroside D]
37.8

Report measured Day 6 % Suppression; entry is O=C(/C=C\c1ccc(O)cc1)OCC1O[C@@H](Oc2c(-c3ccc(O)cc3)oc3cc(O)cc(O)c3c2=O)C(O)[C@H](OC(=O)/C=C\c2ccc(O)cc2)[C@@H]1O (some centres unmarked) [Stenopalustroside A]
18.9

Report measured Day 6 % Suppression; entry is CC1O[C@@H](Oc2c(-c3ccc(O)cc3)oc3cc(O)cc(O)c3c2=O)C(OC(=O)/C=C/c2ccc(O)cc2)C(O)[C@H]1OC(=O)/C=C/c1ccc(O)cc1 (some centres unmarked)
5.4

Report measured Day 6 % Suppression; entry is O=C(/C=C/c1ccc(O)c(O)c1)OCC1O[C@@H](Oc2c(-c3ccc(O)cc3)oc3cc(O)cc(O)c3c2=O)C(O)C(O)[C@@H]1O (stereo partly drawn) [kaempferol 3-O-β-(6″-caffeoylglucoside)]
5.4
